tested.on: feline FcRn (FCN-F82W3, Acrobiosystems) (feline)
assay.overview: SPR Carterra, IgG coupled, pH 7.4
property.name: pKd
pKd here: minus log base 10 of the concentration, concentration in moles per litre.

Which pKd is reported for this binder? anti-NGF feline IgG1a, Fc variant S252Y, Q311K (antibody, part only; not given: anti-NGF variable domains, light chain, not shown: another chain or arm of the molecule; small tags and cut ends) Fc: PPEMLGGPSIFIFPPKPKDTLYISRTPEVTCLVVDLGPDDSDVQITWFVDNTQVYTAKTSPREEQFNSTYRVVSVLPILHKDWLKGKEFKCKVNSKSLPSPIERTISKAKGQPHEPQVYVLPPAQEELSRNKVSVTCLIKSFHPPDIAVEWEITGQPEPENNYRTTPPQLDSDGTYFVYSKLSVDRSHWQRGNTYTCSVSHEALHSHHTQKSLTQSPGK
7.33

---
Reported pKd for anti-NGF feline IgG1a, Fc variant T286E, S428R (antibody, part only; not given: anti-NGF variable domains, not shown: another chain or arm of the molecule; small tags and cut ends) Fc: PPEMLGGPSIFIFPPKPKDTLSISRTPEVTCLVVDLGPDDSDVQITWFVDNTQVYEAKTSPREEQFNSTYRVVSVLPILHQDWLKGKEFKCKVNSKSLPSPIERTISKAKGQPHEPQVYVLPPAQEELSRNKVSVTCLIKSFHPPDIAVEWEITGQPEPENNYRTTPPQLDSDGTYFVYSKLSVDRSHWQRGNTYTCSVRHEALHSHHTQKSLTQSPGK : what is it?
7.91

# query: pKd of entry anti-NGF feline IgG1a, Fc variant S252Y, Q311V (antibody, part only; not given: anti-NGF variable domains, light chain, not shown: another chain or arm of the molecule; small tags and cut ends) Fc: PPEMLGGPSIFIFPPKPKDTLYISRTPEVTCLVVDLGPDDSDVQITWFVDNTQVYTAKTSPREEQFNSTYRVVSVLPILHVDWLKGKEFKCKVNSKSLPSPIERTISKAKGQPHEPQVYVLPPAQEELSRNKVSVTCLIKSFHPPDIAVEWEITGQPEPENNYRTTPPQLDSDGTYFVYSKLSVDRSHWQRGNTYTCSVSHEALHSHHTQKSLTQSPGK
6.51

I'd like to know its pKd. The binder in question is anti-NGF feline IgG1a, Fc variant S434Y, S426L (antibody, part only; not given: anti-NGF variable domains, light chain, not shown: another chain or arm of the molecule; small tags and cut ends) Fc: PPEMLGGPSIFIFPPKPKDTLSISRTPEVTCLVVDLGPDDSDVQITWFVDNTQVYTAKTSPREEQFNSTYRVVSVLPILHQDWLKGKEFKCKVNSKSLPSPIERTISKAKGQPHEPQVYVLPPAQEELSRNKVSVTCLIKSFHPPDIAVEWEITGQPEPENNYRTTPPQLDSDGTYFVYSKLSVDRSHWQRGNTYTCLVSHEALHYHHTQKSLTQSPGK
6.73

This collection of values is drawn from patent US20250304650A1.
